For each entry below, report its Human T-cell Binding 2 uM (MFI) value.
molecular target: T1, human CD8 alpha (CD8A) on primary human CD8+ T cells (human, UniProt P01732 22-235); test: flow cytometry, human CD8+ T cells
T1 construct: whole, on cells; also called hCD8A
T1 sequence (P01732 22-235): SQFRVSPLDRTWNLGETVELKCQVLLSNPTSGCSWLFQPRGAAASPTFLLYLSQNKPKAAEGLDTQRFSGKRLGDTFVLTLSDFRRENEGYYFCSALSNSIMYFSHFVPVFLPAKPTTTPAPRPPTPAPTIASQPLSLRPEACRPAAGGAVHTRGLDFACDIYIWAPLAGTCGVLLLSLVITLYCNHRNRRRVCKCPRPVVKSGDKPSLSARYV
Enter your answer as a number in MFI; do not include the unit.

May I ask what Human T-cell Binding 2 uM (MFI) has been recorded for P283HR7P1368_D1 (designed binder, FN3 domain) LPAPKNLVVSRVTEDSARLSWTAPDAAFDSFGISYYEWAPNGEAIQLSVPGSERSYDLTGLKPGTEYHVVIIGVKGGEPSHPLGAPFTT ?
14100

Form field: reported Human T-cell Binding 2 uM (MFI) of P283DR9P1364_H11 (designed binder, FN3 domain) LPAPKNLVVSRVTEDSARLSWTAPDAAFDSFDIAYPELPLGGEAIVLTVPGSERSYDLTGLKPGTEYFVIIWGVKGGDRSEPLSAIFTT
11500

Report Human T-cell Binding 2 uM (MFI) for P283DR9P1364_B1 (designed binder, FN3 domain) LPAPKNLVVSRVTEDSARLSWTAPDAAFDSFYITYPEIPLGGEAIVLTVPGSERSYDLTGLKPGTEYFVVIYGVKGGLLSSPLSAIFTT please.
1480

Need Human T-cell Binding 2 uM (MFI) of P283HR7P1368_A10 (designed binder, FN3 domain) LPAPKNLVVSRVTEDSARLSWTAPDAAFDSFWIFYLEPFPRGEAIPLEVPGSERSYDLTGLKPGTEYSVDIRGVKGGDHSDPLWAYFTT , thanks.
13600

Item under review: P283DR9P1364_D11 (designed binder, FN3 domain) LPAPKNLVVSRVTEDSARLSWTAPDAAFDSFDIAYPEWPPKGEAIVLTVPGSERSYDLTGLKPGTEYFVVIYGVKGGIHSAPLSAIFTT . Reported Human T-cell Binding 2 uM (MFI)?
32300

Human T-cell Binding 2 uM (MFI) for P283HR7P1368_G11 (designed binder, FN3 domain) LPAPKNLVVSRVTEDSARLSWTAPDAAFDSFGIGYAEPAVTGEAISLSVPGSERSYDLTGLKPGTEYWVVIIGVKGGINSYPLGASFTT ?
19300

What value of Human T-cell Binding 2 uM (MFI) has been reported for the following binder? P283DR9P1364_H6 (designed binder, FN3 domain) LPAPKNLVVSRVTEDSARLSWTAPDAAFDSFIIAYPETPVRGEAIVLTVPGSERSYDLTGLKPGTEYFVIIIGVKGGQESFPLSAIFTT
2620

Entry under review: P283FR9P1366_C3 (designed binder, FN3 domain) LPAPKNLVVSRVTEDSARLSWTAPDAAFDSFKIAYPEWPDGGEAIVLTVPGSERSYDLTGLKPGTEYFVIIYGVKGGILSPPLSAIFTT . Reported Human T-cell Binding 2 uM (MFI)?
1820

Can you share its Human T-cell Binding 2 uM (MFI)? I mean this binder: P283ER9P1365_C1 (designed binder, FN3 domain) LPAPKNLVVSRVTEDSARLSWTAPDAAFDSFYIPYWESEVYGEAIALPVTGSERSYDLTGLKPGTEYQVSIIGVKGGVYSQPLAAIFTT
8000

// Human T-cell Binding 2 uM (MFI) lookup, key: P283HR7P1368_D4 (designed binder, FN3 domain) LPAPKNLVVSRVTEDSARLSWTAPDAAFDSFAIWCVEPIPEGEAIPLFVPGSERSYDLTGLKPGTEYRVGIRGVKGGTFSSPLAAPFTT
29000

Please report the recorded Human T-cell Binding 2 uM (MFI) for P283GR7P1367_B7 (designed binder, FN3 domain) LPAPKNLVVSRVTEDSARLSWTAPDAAFDSFDIAYPEWPTDGEAIVLTVPGSERSYDLTGLKPGTEYFVVIYGVKGGHWSYPLSAIFTT .
10900

Entry under review: P283HR7P1368_B12 (designed binder, FN3 domain) LPAPKNLVVSRVTEDSARLSWTAPDAAFDSFGIGYVEFTRAGEAISLSVPGSERSYDLTGLKPGTEYHVVIIGVKGGEPSHPLGAPFTT . Reported Human T-cell Binding 2 uM (MFI)?
13400

I would be grateful if you could share the reported Human T-cell Binding 2 uM (MFI) for P283DR9P1364_G10 (designed binder, FN3 domain) LPAPKNLVVSRVTEDSARLSWTAPDAAFDSFSIAYPEWPGSGEAIVLTVPGSERSYDLTGLKPGTEYFVVIFGVKGGSQSWPLSAIFTT .
6290

# input binder: P283GR7P1367_B9 (designed binder, FN3 domain) LPAPKNLVVSRVTEDSARLSWTAPDAAFDSFEIWYHEYHPRGEAIVLTVPSSERSYDLTGLKPGTEYDVVISGVKGGHWSYPLSAIFTT ; wanted: its Human T-cell Binding 2 uM (MFI)
11200

// Human T-cell Binding 2 uM (MFI) lookup, key: P283GR7P1367_G8 (designed binder, FN3 domain) LPAPKNLVVSRVTEDSARLSWTAPDAAFDSFYIAYPEYVWGGEATSLGEAIVLTVPGSERSYDLTGLKPGTEYFVVITGVKGGLGSYPLSAIFTT
1460

# get_value(readout='Human T-cell Binding 2 uM (MFI)', item= P283FR9P1366_H3 (designed binder, FN3 domain) LPAPKNLVVSRVTEDSARLSWTAPDAAFDSFAIAYPEWPIKGEAIVLTVPGSERSYDLTGLKPGTEYWVVIYGVKGGVFSEPLSAIFTT )
7670

What measured Human T-cell Binding 2 uM (MFI) goes with P283DR9P1364_H1 (designed binder, FN3 domain) LPAPKNLVVSRVTEDSARLSWTAPDAAFDSFQISYPEWPVHGEAIVLTVPGSERSYDLTGLKPGTEYWVIIWGVKGGRQSWPLSAIFTT ?
29200

Which measured Human T-cell Binding 2 uM (MFI) value corresponds to P283FR9P1366_A9 (designed binder, FN3 domain) LPAPKNLVVSRVTEDSARLSWTAPDAAFDSFNIAYGEYPGPGEAIVLTVPGSERSYDLTGLKPGTEYWVPIWGVKGGELSEPLSAIFTT ?
1720
